Numbers sourced from PubChem BioAssay (NCI).

- Tested on: NCI-H460 lung
*1 amine or outer side, *2 acyl side, *3 side chain or, on linkers, in order; H or OH if unused. Where a SMILES comes first, the peptide text is derived from it. [ ]: non-standard residue; d: D form. ξ: configuration not given here. X21 = CC[C@@H](C)C(N[*:1])C(=O)[*:2]; ξR = N=C(N)NCCCC(N)C(=O)O; ξI = CCC(C)C(N)C(=O)O; ξL = CC(C)CC(N)C(=O)O; ξK = NCCCCC(N)C(=O)O; ξV = CC(C)C(N)C(=O)O; ξA = CC(N)C(=O)O
Use one of these outcomes when replying: active, inactive

The examples below pair each entry with its known result.
NC1=Nc2cc(OCCCN3Cc4ccccc4C3)c(OCC3CC3)cc2C12CCCC2 ... inactive
COc1cc(OC)c(C(=O)/C=C/c2cccc(OC(C)=O)c2)cc1CC=C(C)C ... inactive
COc1ccc(-c2csc(NC(=O)c3cc(O)c(O)c(O)c3)n2)cc1 ... inactive
CCC(C)C1NC(=O)C(CC(C)C)NC(=O)C(C)NC(=O)C(C(C)C)NC(=O)C(CCCCN)NC(=O)C(CC(C)C)NC(=O)C(C(C)C)NC(=O)[C@H](C)NC(=O)C(C(C)CC)NC(=O)C(CCCN=C(N)N)NC(=O)C(CCCCN)NC(=O)C(CCCN=C(N)N)NC(=O)C(CCCCN)NC(=O)C([C@H](C)CC)NC(=O)C(CCCCN)NC1=O (stereo partly specified) (cyclo(A[ξV][ξL][ξK][ξV][ξA][ξL][ξI][ξK][X21][ξK][ξR][ξK][ξR][ξI])) ... inactive

Short answer needed: outcome of this test for N#Cc1c(N)nc(N2CCOCC2)c(C#N)c1-c1ccccc1Cl ? inactive

Short answer needed: outcome of this test for OCc1ccc(N(CCN2CCCC2)Cc2ccc(F)cc2)cc1Cl ? inactive

Short answer needed: outcome of this test for Cc1ccc(Sc2sc(-c3ccccc3)nc2[P+](c2ccccc2)(c2ccccc2)c2ccccc2)cc1 ? active

Short answer needed: outcome of this test for C=C1C(=O)O[C@H]2[C@H]1CC/C(COC(=O)c1ccccc1)=C\CC[C@@]1(C)O[C@@H]21 ? inactive
